Cited source: ChEMBL document CHEMBL1145905

- Tested System: Opioid receptors; delta & kappa (Homo sapiens) (UniProt P41145+P41143)
- Sequence (P41143 whole entry, looked up): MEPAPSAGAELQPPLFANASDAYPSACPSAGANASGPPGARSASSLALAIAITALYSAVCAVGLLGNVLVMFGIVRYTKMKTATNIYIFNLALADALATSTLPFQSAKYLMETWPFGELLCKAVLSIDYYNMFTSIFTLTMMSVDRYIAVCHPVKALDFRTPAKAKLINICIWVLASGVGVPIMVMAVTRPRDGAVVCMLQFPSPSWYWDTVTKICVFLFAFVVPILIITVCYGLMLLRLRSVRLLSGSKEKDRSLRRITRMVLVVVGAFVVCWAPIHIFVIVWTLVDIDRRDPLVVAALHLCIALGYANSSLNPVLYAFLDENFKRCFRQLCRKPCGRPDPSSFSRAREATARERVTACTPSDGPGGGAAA
- Sequence (P41145 whole entry, looked up): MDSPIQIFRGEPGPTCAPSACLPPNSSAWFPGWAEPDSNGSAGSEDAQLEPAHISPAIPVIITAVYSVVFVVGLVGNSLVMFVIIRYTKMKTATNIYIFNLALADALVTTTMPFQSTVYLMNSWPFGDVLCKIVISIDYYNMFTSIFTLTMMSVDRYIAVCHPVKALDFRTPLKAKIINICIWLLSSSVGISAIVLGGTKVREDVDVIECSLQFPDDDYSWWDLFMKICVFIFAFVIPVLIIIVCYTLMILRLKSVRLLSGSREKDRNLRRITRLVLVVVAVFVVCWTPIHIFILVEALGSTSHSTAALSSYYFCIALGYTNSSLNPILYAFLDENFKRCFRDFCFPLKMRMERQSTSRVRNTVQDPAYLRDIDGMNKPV
- Measurement Description: Selective inhibitory activity was determined against kappa & delta opioid receptor in chinese Hamster Ovary (CHO) cell membranes
Lab note: anything with Selectivity below 40 is marked 1.0; values at 40 or higher are marked 0.0.

O=C(CCCC(=O)Oc1ccc2c(c1)[C@@]13CCCC[C@H]1[C@@H](C2)N(CC1CCC1)CC3)Oc1ccc2c(c1)[C@@]13CCCC[C@H]1[C@@H](C2)N(CC1CCC1)CC3 = 0.0
O=C(Oc1ccc2c(c1)[C@@]13CCCC[C@H]1[C@@H](C2)N(CC1CCC1)CC3)c1ccc(C(=O)Oc2ccc3c(c2)[C@@]24CCCC[C@H]2[C@@H](C3)N(CC2CCC2)CC4)cc1 = 0.0
O=C(CCCCCCCC(=O)Oc1ccc2c(c1)[C@@]13CCCC[C@H]1[C@@H](C2)N(CC1CCC1)CC3)Oc1ccc2c(c1)[C@@]13CCCC[C@H]1[C@@H](C2)N(CC1CCC1)CC3 = 1.0

Now turn to the next compound.
Does Oc1ccc2c(c1)[C@@]13CCCC[C@H]1[C@@H](C2)N(CCCCCCN1CC[C@]24CCCC[C@H]2[C@H]1Cc1ccc(O)cc14)CC3 have Selectivity strictly under 40?
1.0
